Just for reference, ChEMBL document CHEMBL1140805 is where these values come from.

As an illustration, consider measured IC50 for compounds on Prostaglandin G/H synthase 1 (Ovis aries).
Sequence (P05979 whole entry): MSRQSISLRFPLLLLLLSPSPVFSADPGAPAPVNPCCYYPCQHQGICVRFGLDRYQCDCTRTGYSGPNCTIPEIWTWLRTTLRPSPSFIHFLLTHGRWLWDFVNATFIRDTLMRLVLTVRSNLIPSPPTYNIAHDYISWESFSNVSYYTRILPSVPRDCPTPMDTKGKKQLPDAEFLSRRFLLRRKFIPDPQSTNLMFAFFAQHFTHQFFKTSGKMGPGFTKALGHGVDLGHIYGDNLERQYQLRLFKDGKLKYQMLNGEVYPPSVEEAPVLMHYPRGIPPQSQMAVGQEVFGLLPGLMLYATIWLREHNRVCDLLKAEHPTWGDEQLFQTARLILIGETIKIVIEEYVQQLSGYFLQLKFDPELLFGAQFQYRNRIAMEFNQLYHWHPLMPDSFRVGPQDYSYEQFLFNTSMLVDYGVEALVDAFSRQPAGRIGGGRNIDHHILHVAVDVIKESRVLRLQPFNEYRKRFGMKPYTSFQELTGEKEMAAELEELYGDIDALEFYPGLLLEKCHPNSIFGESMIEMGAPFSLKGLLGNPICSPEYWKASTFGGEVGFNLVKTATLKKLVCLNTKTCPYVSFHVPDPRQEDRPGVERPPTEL

Below, each entry is followed by its recorded IC50 result.
* Cc1ccc(S(=O)(=O)n2cc([C@@]3(O)C[C@H](CSC#N)OC3=O)c3ccccc32)cc1 | < 10 µM
* Cc1ccc(S(=O)(=O)n2cc([C@@]3(O)C[C@H](CI)OC3=O)c3ccccc32)cc1 | > 10 µM

Now examine the next entry.
q: Recall and state the measured IC50 for CCSC[C@H]1C[C@](O)(c2cn(S(=O)(=O)c3ccc(C)cc3)c3ccccc23)C(=O)O1 .
a: > 10 µM

###

Molecular target: Prostaglandin G/H synthase 1 (Ovis aries)
Test: Inhibition of ovine COX1 at 10 uM
QUANTITY NAME: inhibition (%)
Report the value in % with no unit label.

Below, each entry is followed by its recorded inhibition result.
* CCSC[C@H]1C[C@](O)(c2cn(S(=O)(=O)c3ccc(C)cc3)c3ccccc23)C(=O)O1 | 35
* Cc1ccc(S(=O)(=O)n2cc([C@@]3(O)C[C@H](CI)OC3=O)c3ccccc32)cc1 | 40
* CS(=O)(=O)c1ccc(C2=C(c3ccccc3)C(=O)OC2)cc1 | 75

Now examine the next entry.
q: Recall and state the measured inhibition for Cc1ccc(S(=O)(=O)n2cc([C@@]3(O)C[C@H](CSC#N)OC3=O)c3ccccc32)cc1 .
a: 65
